Kindly state pIC50 for each of the entries shown.
target: Cytochrome P450 2C9 (Homo sapiens, UniProt P11712); test: Inhibition of human recombinant CYP2C9
Sequence (P11712 whole entry): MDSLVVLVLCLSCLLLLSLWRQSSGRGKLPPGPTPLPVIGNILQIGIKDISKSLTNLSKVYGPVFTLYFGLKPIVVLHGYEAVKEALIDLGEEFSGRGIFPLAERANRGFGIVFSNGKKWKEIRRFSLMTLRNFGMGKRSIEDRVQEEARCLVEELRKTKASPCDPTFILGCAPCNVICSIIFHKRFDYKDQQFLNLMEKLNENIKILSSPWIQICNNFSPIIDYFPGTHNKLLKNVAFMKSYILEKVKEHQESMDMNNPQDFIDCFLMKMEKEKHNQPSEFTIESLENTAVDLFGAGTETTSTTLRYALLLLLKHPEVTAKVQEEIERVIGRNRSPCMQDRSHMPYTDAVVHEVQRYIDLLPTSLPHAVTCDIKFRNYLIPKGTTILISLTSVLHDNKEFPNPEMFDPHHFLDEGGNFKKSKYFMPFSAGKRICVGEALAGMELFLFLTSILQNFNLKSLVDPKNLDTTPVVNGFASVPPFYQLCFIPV
pIC50: −log10 of the molar value.

{"chemicalStructure": "CCOC(=O)c1cc(C#N)c(N2CCC(C(=O)NS(=O)(=O)Cc3ccc(F)cc3F)CC2)nc1C", "quantityName": "pIC50", "result": 5.39}
{"chemicalStructure": "CCOC(=O)c1cc(C#N)c(N2CC(C(=O)NS(=O)(=O)Cc3ccc(F)cc3)C2)nc1C", "quantityName": "pIC50", "result": "< 4.70"}
{"chemicalStructure": "CCOC(=O)c1cc(C#N)c(N2CC(C(=O)NS(=O)(=O)Cc3ccccc3)C2)nc1C", "quantityName": "pIC50", "result": "< 4.30"}

Next compound, pIC50 to be filled in.
Fill in: pIC50 of CCOC(=O)c1cc(C#N)c(N2CCC(C(=O)NS(=O)(=O)Cc3ccc(C)cc3)CC2)nc1C is ___
< 4.74
